Collected literature values of IC50 measured for Prothrombin (Homo sapiens, UniProt P00734).
READOUT: IC50

> print(dat)
                                   molecule     result
1  CC(C)(C)OC(=O)C1CCCN1C(=O)c1ccc(NC(=O)COc2cccc(C(=N)N)c2)cc1 (stereo not drawn)    > 10 µM
2  CC(C)[C@@H](NCC(=O)O)C(=O)NC1(C(=O)NCc2ccc(C(=N)N)cc2)Cc2cccc3cccc(c23)C1   > 300 µM
3  Cc1cc(C(=O)Nc2ccc(-c3ccccc3CN)cc2F)n(-c2cc3ccccc3cc2F)n1    > 10 µM
4  Cc1ccn(NCS(=O)(=O)c2ccc(Cl)cc2)c(=O)c1CC(=O)NCc1ccnc(N)c1  > 44.4 µM
5  N=C(N)c1ccc2ccc(OCC3(C(=O)O)CCN(c4ccncc4)CC3)cc2c1    > 10 µM
6  N=C(N)c1cccc(C(=O)N[C@@H](CCC(=O)O)C(=O)Nc2ccc(-c3ccccc3S(N)(=O)=O)cc2)c1    > 10 µM
7  N=C(N)c1cccc(C(=O)N[C@@H](CCC(=O)OCc2ccccc2)C(=O)Nc2ccc(-c3ccccc3S(N)(=O)=O)cc2)c1    > 10 µM
8  N=C(N)NCCC[C@H](NC(=O)[C@H](Cc1cccc2ccccc12)NC(=O)[C@@H](Cc1ccccc1)NS(=O)(=O)Cc1ccccc1)C(=O)c1nccs1    > 30 µM
